Data provenance: PubChem BioAssay AID2060889

- Tested on: LG0567-F671-PDC complex spheroids viability;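 further: spheroids exposed to compound for seven days before readout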
- assay-details: Anticancer human tumor LG0567-F671-PDC patient-derived lung adenocarcinoma cell line growth inhibition [RAS]
- condition-description: second compound 0.003 µM; first compound 0.1 µM; active compounds read low
observable: viability, T/C

Output viability, T/C of CCN1CCN(Cc2ccc(Nc3ncc(F)c(-c4cc(F)c5nc(C)n(C(C)C)c5c4)n3)nc2)CC1 + CCn1c(-c2cc(N3CCN(C)CC3)cnc2C(C)OC)c2c3cc(ccc31)-c1csc(n1)CC(NC(=O)C1CC1C)C(=O)N1CCCC(N1)C(=O)OCC(C)(C)C2
11.4%

Output viability, T/C of C=CC(=O)Nc1cc(Nc2nccc(-c3cn(C)c4ccccc34)n2)c(OC)cc1N(C)CCN(C)C + CCn1c(-c2cc(N3CCN(C)CC3)cnc2C(C)OC)c2c3cc(ccc31)-c1csc(n1)CC(NC(=O)C1CC1C)C(=O)N1CCCC(N1)C(=O)OCC(C)(C)C2
4.71%

Output viability, T/C of CC(=O)OC12COC1CC(O)C1(C)C(=O)C(O)C3=C(C)C(OC(=O)C(O)C(NC(=O)OC(C)(C)C)c4ccccc4)CC(O)(C(OC(=O)c4ccccc4)C21)C3(C)C (stereo not given) + CCn1c(-c2cc(N3CCN(C)CC3)cnc2C(C)OC)c2c3cc(ccc31)-c1csc(n1)CC(NC(=O)C1CC1C)C(=O)N1CCCC(N1)C(=O)OCC(C)(C)C2
7.86%

Output viability, T/C of C[C@@H](NC(=O)c1ncnc(N)c1Cl)c1ncc(C(=O)Nc2cc(C(F)(F)F)c(Cl)cn2)s1 + CCn1c(-c2cccnc2C(C)OC)c2c3cc(ccc31)N1CCOC(CC(NC(=O)C(C(C)C)N(C)C(=O)C3(F)CCN(C(=O)C#CC(C)(C)N(C)C)CC3)C(=O)N3CCCC(N3)C(=O)OCC(C)(C)C2)C1
17.9%

Output viability, T/C of CCC(CC)c1cc(NC2CCC(N)C2)n2nccc2n1 (stereo not given) + CCn1c(-c2cc(N3CCN(C)CC3)cnc2C(C)OC)c2c3cc(ccc31)-c1csc(n1)CC(NC(=O)C1CC1C)C(=O)N1CCCC(N1)C(=O)OCC(C)(C)C2
9.27%

Output viability, T/C of CC(C)NCC(C(=O)N1CCN(c2ncnc3c2C(C)CC3O)CC1)c1ccc(Cl)cc1 (stereo not given) + CCn1c(-c2cccnc2C(C)OC)c2c3cc(ccc31)N1CCOC(CC(NC(=O)C(C(C)C)N(C)C(=O)C3(F)CCN(C(=O)C#CC(C)(C)N(C)C)CC3)C(=O)N3CCCC(N3)C(=O)OCC(C)(C)C2)C1
11.7%

Output viability, T/C of NC1c2ccccc2OC12CCN(c1cnc3c(N4CCCc5ncccc54)n[nH]c3n1)CC2 (stereo not given) + CCn1c(-c2cccnc2C(C)OC)c2c3cc(ccc31)N1CCOC(CC(NC(=O)C(C(C)C)N(C)C(=O)C3(F)CCN(C(=O)C#CC(C)(C)N(C)C)CC3)C(=O)N3CCCC(N3)C(=O)OCC(C)(C)C2)C1
4.2%

Output viability, T/C of NC1c2ccccc2OC12CCN(c1cnc3c(N4CCCc5ncccc54)n[nH]c3n1)CC2 (stereo not given) + CCn1c(-c2cc(N3CCN(C)CC3)cnc2C(C)OC)c2c3cc(ccc31)-c1csc(n1)CC(NC(=O)C1CC1C)C(=O)N1CCCC(N1)C(=O)OCC(C)(C)C2
2.3%

Output viability, T/C of Cc1nc(N2CCC3(CC2)COC(C)C3N)c(CO)nc1Sc1ccnc(N)c1Cl (stereo not given) + CCn1c(-c2cc(N3CCN(C)CC3)cnc2C(C)OC)c2c3cc(ccc31)-c1csc(n1)CC(NC(=O)C1CC1C)C(=O)N1CCCC(N1)C(=O)OCC(C)(C)C2
5.75%

Output viability, T/C of Cc1nc(N2CCC3(CC2)COC(C)C3N)c(CO)nc1Sc1ccnc(N)c1Cl (stereo not given) + CCn1c(-c2cccnc2C(C)OC)c2c3cc(ccc31)N1CCOC(CC(NC(=O)C(C(C)C)N(C)C(=O)C3(F)CCN(C(=O)C#CC(C)(C)N(C)C)CC3)C(=O)N3CCCC(N3)C(=O)OCC(C)(C)C2)C1
8.89%

Output viability, T/C of CC1(O)CCCC1n1c(=O)c(C(F)F)cc2cnc(NC3CCN(S(C)(=O)=O)CC3)nc21 (stereo not given) + CCn1c(-c2cccnc2C(C)OC)c2c3cc(ccc31)N1CCOC(CC(NC(=O)C(C(C)C)N(C)C(=O)C3(F)CCN(C(=O)C#CC(C)(C)N(C)C)CC3)C(=O)N3CCCC(N3)C(=O)OCC(C)(C)C2)C1
16.9%

Output viability, T/C of CC(Nc1ccc2c(c1)OCCn1cc(N3C(=O)OCC3C(F)F)nc1-2)C(N)=O (stereo not given) + CCn1c(-c2cccnc2C(C)OC)c2c3cc(ccc31)N1CCOC(CC(NC(=O)C(C(C)C)N(C)C(=O)C3(F)CCN(C(=O)C#CC(C)(C)N(C)C)CC3)C(=O)N3CCCC(N3)C(=O)OCC(C)(C)C2)C1
8.19%

Output viability, T/C of CC(C)n1nc(-c2ccc3oc(N)nc3c2)c2c(N)ncnc21 + CCn1c(-c2cc(N3CCN(C)CC3)cnc2C(C)OC)c2c3cc(ccc31)-c1csc(n1)CC(NC(=O)C1CC1C)C(=O)N1CCCC(N1)C(=O)OCC(C)(C)C2
3.31%

Output viability, T/C of C=CC(=O)N1CCN(c2nc(OCC3CCCN3C)nc3c(F)c(-c4nc(N)cc(C)c4C(F)(F)F)c(Cl)cc23)C(C)C1 (stereo not given) + CCn1c(-c2cc(N3CCN(C)CC3)cnc2C(C)OC)c2c3cc(ccc31)-c1csc(n1)CC(NC(=O)C1CC1C)C(=O)N1CCCC(N1)C(=O)OCC(C)(C)C2
7.54%

Output viability, T/C of CC(C)NCC(C(=O)N1CCN(c2ncnc3c2C(C)CC3O)CC1)c1ccc(Cl)cc1 (stereo not given) + CCn1c(-c2cc(N3CCN(C)CC3)cnc2C(C)OC)c2c3cc(ccc31)-c1csc(n1)CC(NC(=O)C1CC1C)C(=O)N1CCCC(N1)C(=O)OCC(C)(C)C2
10.1%
